Test system: MALME-3M melanoma
Experiment: NCI tumour cell line growth inhibition, 48 h
Value Kind: TGI (µM)
Give your result in µM as a bare value.

Task: So what's the measured TGI for this one? CN(C)CCNC(=O)c1cccc2ccc(-c3cccnc3)nc12
Result: 16.8

Task: So what's the measured TGI for this one? FC(F)(F)c1[nH]ncc1-c1nc2c(N3CCCCC3)cc3[nH]ncc3c2c2c1CCCC2
Result: 2.14

Task: So what's the measured TGI for this one? COc1cc(C(C)(C)C)cc(OC)c1C(O)(c1c(OC)cc(C(C)(C)C)cc1OC)c1c(OC)cc(C(C)(C)C)cc1OC
Result: 0.683

Task: So what's the measured TGI for this one? C=CC[N+]1(CCO)CCN=C1CCCCCCCCCCCCC (stereo not given)
Result: 3.18

====

Tested on: DU-145 prostate
Experiment: NCI tumour cell line growth inhibition, 48 h
Could you please report measured TGI for the items listed next?
Give your result in µM as a bare value.

Task: So what's the measured TGI for this one? C=C1C(=O)OC2/C=C(\C)C(=O)CC3OC(C)(C)OC3(C)CC(OC(=O)/C(C)=C/C)C12 (stereo not given)
Result: 45.1

Task: So what's the measured TGI for this one? CN(C)Cc1cc(C(=O)/C=C/c2ccc(Br)cc2)cc(CN(C)C)c1O
Result: 25.1

Task: So what's the measured TGI for this one? COc1cc(OC)cc(-c2ccc(-c3ccc(C(=N)N)s3)s2)c1
Result: 2.77

Task: So what's the measured TGI for this one? CCc1cccc(CC)c1Nc1nc2c(s1)C(=O)c1ccccc1C2=O
Result: 45.3

Task: So what's the measured TGI for this one? C[C@H](C(=O)N[C@@H](Cc1ccc(-c2ccccc2)cc1)C(=O)NC1CC(C)(C)N(C)C(C)(C)C1)c1ccc(-c2ccccc2)c(F)c1
Result: 3

Task: So what's the measured TGI for this one? COc1cccc2c1nc1cccc(OC)c1[n+]2[O-]
Result: 16.9

Task: So what's the measured TGI for this one? CC[C@@]1(O)C[C@H](OC2CC(N(C)C)C(OC3CC(O)C(OC4CCC(=O)C(C)O4)C(C)O3)C(C)O2)c2c(cc3c(c2O)C(=O)c2c(O)ccc(O)c2C3=O)[C@H]1C(=O)OC (stereo not given in full)
Result: 0.038

Task: So what's the measured TGI for this one? C=C(C)C(=O)OC1C(C(C)CCCO)=C(CO)CC2OC(=O)C(=C)C21 (stereo not given)
Result: 27.8

Task: So what's the measured TGI for this one? COC1/C=C\OC2(C)Oc3c(C)c(O)c4c(O)c(c(/C=N\OCCCc5ccccc5)c(O)c4c3C2=O)NC(=O)/C(C)=C\C=C/C(C)C(O)C(C)C(O)C(C)C(OC(C)=O)C1C (stereo not given)
Result: 15.7

====

Tested on: A498 renal
Experiment: NCI tumour cell line growth inhibition, 48 h
Value Kind: TGI (µM)
Give your result in µM as a bare value.

Task: Return TGI measured with A498 renal given this molecule: O=c1oc2ccccc2cc1-c1csc(Nc2cc(Cl)cc(Cl)c2)n1
Result: 65.6

Task: Return TGI measured with A498 renal given this molecule: CCOC(=O)c1ccc(NC(=O)O/N=C(/Cl)C(C)C)cc1
Result: 28.4

Task: Return TGI measured with A498 renal given this molecule: O=C1c2ccccc2C(=O)c2c(NC(=O)C(Cl)CCl)cccc21 (stereo unspecified)
Result: 36.2

Task: Return TGI measured with A498 renal given this molecule: O=C(Nc1ccc(Cl)cc1F)c1cc(F)ccc1O
Result: 0.98

Task: Return TGI measured with A498 renal given this molecule: Nc1nc(N)c2ncn(-c3ccc(Cl)c(Cl)c3)c2n1
Result: 32.4

Task: Return TGI measured with A498 renal given this molecule: N=C(N)c1ccc(-c2ccc(-c3cncc4ccccc34)s2)cc1F
Result: 2.5

Task: Return TGI measured with A498 renal given this molecule: N#Cc1nc(Sc2cnsn2)c(Sc2cnsn2)nc1C#N
Result: 43.8

Task: Return TGI measured with A498 renal given this molecule: Cc1c2cnccc2c(C)c2c1c1cc(C(=O)O)ccc1n2C
Result: 2.14

Task: Return TGI measured with A498 renal given this molecule: COc1cc(-c2nc(-c3nnc(-c4ccc(F)c(Cl)c4)o3)c3ccccn23)cc(OC)c1OC
Result: 6.76

Task: Return TGI measured with A498 renal given this molecule: CC(=O)c1cccc(Nc2c3ccccc3nc3occc23)c1
Result: 74.7

Task: Return TGI measured with A498 renal given this molecule: CC(C)(C)CC(C)(C)N(CSc1ccc(Cl)cc1)CSc1ccc(Cl)cc1
Result: 0.863

Task: Return TGI measured with A498 renal given this molecule: FC(F)(F)c1ccc2c(c1)nc(Cc1ccc(Cl)c(Cl)c1)n2CC1CCCN2CCCCC12 (stereo unspecified)
Result: 67.6

Task: Return TGI measured with A498 renal given this molecule: CCN1/C(=C/C=C/C=C/c2sc3ccccc3[n+]2CC)Sc2ccccc21
Result: 4.12

Task: Return TGI measured with A498 renal given this molecule: C=C(CN(C)C)C(=O)c1ccc(C)cc1C
Result: 33.7

Task: Return TGI measured with A498 renal given this molecule: CC(C)=CCc1c(O)ccc2c1OC1c3ccc(O)c(CC=C(C)C)c3OCC21 (stereo unspecified)
Result: 25

====

Test system: NCI-H23 lung
Experiment: NCI tumour cell line growth inhibition, 48 h
Value Kind: TGI (µM)
Give your result in µM as a bare value.

Task: Return TGI measured with NCI-H23 lung given this compound: C=C(C)C(=O)OC1C(C(C)CCCO)=C(CO)CC2OC(=O)C(=C)C21 (centres undefined)
Result: 43

Task: Return TGI measured with NCI-H23 lung given this compound: Clc1nc(Cl)c2ncn(C/C=C/Cn3cnc4c(Cl)nc(Cl)nc43)c2n1
Result: 38

Task: Return TGI measured with NCI-H23 lung given this compound: Nc1ccc(C(=O)NN2C(=O)C(Cl)C2c2cc(Br)cc(Br)c2O)cc1 (centres undefined)
Result: 58

Task: Return TGI measured with NCI-H23 lung given this compound: CC(=O)c1cccc(Nc2c3ccccc3nc3occc23)c1
Result: 18.2

Task: Return TGI measured with NCI-H23 lung given this compound: COc1ccc(OC)c(/C=C/C(=O)C(C)(C)C)c1
Result: 40.4

Task: Return TGI measured with NCI-H23 lung given this compound: CN(C)Cc1cc(C(=O)/C=C/c2ccc(Br)cc2)cc(CN(C)C)c1O
Result: 33

Task: Return TGI measured with NCI-H23 lung given this compound: Cc1ccc(/C=N/Nc2cc(C)c3ccccc3n2)s1
Result: 96.3

Task: Return TGI measured with NCI-H23 lung given this compound: CCNc1nc(N)c(C(=O)c2cccs2)s1
Result: 63.9

Task: Return TGI measured with NCI-H23 lung given this compound: CC(OC1CC(=O)CC2C(=O)C=CC(=O)C12)c1ccccc1 (centres undefined)
Result: 33.6

Task: Return TGI measured with NCI-H23 lung given this compound: O=C(N[C@@H]1C=CCC[C@@H]1c1ccccc1)OCc1ccccc1
Result: 51.3

Task: Return TGI measured with NCI-H23 lung given this compound: COC1/C=C\OC2(C)Oc3c(C)c(O)c4c(O)c(c(/C=N\OCCCc5ccccc5)c(O)c4c3C2=O)NC(=O)/C(C)=C\C=C/C(C)C(O)C(C)C(O)C(C)C(OC(C)=O)C1C (centres undefined)
Result: 10

Task: Return TGI measured with NCI-H23 lung given this compound: O=C(c1ccccn1)c1nc(-c2ccc(Cl)c(Cl)c2)nc2ccc(Cl)cc12
Result: 87.5

Task: Return TGI measured with NCI-H23 lung given this compound: O=S(=O)(CC#CCCCOCC#Cc1ccccc1C#CCS(=O)(=O)c1ccccc1)c1ccccc1
Result: 44.8

Task: Return TGI measured with NCI-H23 lung given this compound: OC(Cc1ccccc1)(Cc1ccccc1)c1ccccc1
Result: 38.4

Task: Return TGI measured with NCI-H23 lung given this compound: CC(C)(Cl)C(Br)CCC(CBr)=C(Cl)CCl (mixture of isomers)
Result: 5.42

Task: Return TGI measured with NCI-H23 lung given this compound: CCCCCCCCCCCCC/C=C1\C[C@H](O)COC1=O
Result: 36.4

Task: Return TGI measured with NCI-H23 lung given this compound: O=C1c2ccc3c4c(ccc(c24)C(=O)N1CCCNCc1ccccc1)C(=O)N(CCCNCc1ccccc1)C3=O
Result: 0.42

Task: Return TGI measured with NCI-H23 lung given this compound: OC12CC3c4ccccc4NC3C3Oc4cccc5c4C31CCN(CC1CC1)C2C5 (centres undefined)
Result: 30.6

Task: Return TGI measured with NCI-H23 lung given this compound: CC(C)C(C/C=C1/CC(CO)(COC(=O)C(C)(C)C)OC1=O)C(C)C (centres undefined)
Result: 23.8

Task: Return TGI measured with NCI-H23 lung given this compound: CCN1CCC2(CC1)NC(=O)c1c(c3ccc(Cl)c(Cl)c3n1C)C2C#N (centres undefined)
Result: 16

Task: Return TGI measured with NCI-H23 lung given this compound: O=C1c2ccccc2C(=O)c2c(NC(=O)C(Cl)CCl)cccc21 (centres undefined)
Result: 11.6

Task: Return TGI measured with NCI-H23 lung given this compound: COc1cccc2c1C(=O)c1c(O)c3c(c(O)c1C2=O)C[C@@](O)(C(=O)CO)C[C@@H]3OC1CC(OC(C)=O)C(OC(C)=O)C(C)O1 (some centres undefined)
Result: 1.5

Task: Return TGI measured with NCI-H23 lung given this compound: CN(C)Cc1cc(N=Nc2ccccc2Cl)ccc1O
Result: 83.9
